# procedure text: Binding affinity was determined in a crude membrane preparation from guinea pig brain by displacement of [3H]DPDPE from Opioid receptor delta 1
parameter: Ki (nM)

[
  {
    "compound": "O=C1/C(=C\\c2ccccc2)C[C@@]2(O)[C@H]3Cc4ccc(O)c5c4[C@@]2(CCN3CC2CC2)[C@H]1O5",
    "parameter": "Ki",
    "result unit": "nM",
    "endpoint result": 3.7
  },
  {
    "compound": "O=C1/C(=C/c2ccccc2)C[C@@]2(O)[C@H]3Cc4ccc(O)c5c4[C@@]2(CCN3CC2CC2)[C@H]1O5 [7-Benzylidenenaltrexone]",
    "parameter": "Ki",
    "result unit": "nM",
    "endpoint result": 6.2
  },
  {
    "compound": "O=C1C(=Cc2ccc3ccccc3c2)C[C@@]2(O)[C@H]3Cc4ccc(O)c5c4C2(CCN3CC2CC2)[C@H]1O5",
    "parameter": "Ki",
    "result unit": "nM",
    "endpoint result": 39
  }
]
